Values compiled from the Human Domainome abundance scans (Beltran et al. 2025).

B1: Poly(rC)-binding protein 1, residues 278 to 350; numbered along this chain, Q15365 (parent)
chain: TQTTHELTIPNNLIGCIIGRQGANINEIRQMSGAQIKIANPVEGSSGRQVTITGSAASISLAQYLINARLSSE

# Variants of: B1
# ASSAY_PROCEDURE: abundance fitness (aPCA) (normalised: wild type 0, dead -1); higher = more abundant; growth selection in yeast, the domain comes from the species named
# CONDITION: Homo sapiens
The variants listed here are annotated with their abundance fitness.
MEASURED_ATTRIBUTE: abundance fitness

• E43H = -0.021
• R48G = -0.597
• Q35D = 0.001
• L7D = -0.616
• I38P = -0.631
• R20E = 0.012
• H5W = 0.091
• G15H = -0.072
• Q49V = 0.043
• S71Y = -0.258
• G54D = -0.834
• Q63T = 0.006
• S46T = -0.063
• I9L = -0.072
• R48K = -0.451
• I17Q = -0.878
• S46V = -0.179
• I38G = -0.727
• I52Y = -1.09
• I36N = -0.689
• L70M = -0.228
• V42P = -0.192
• R69Q = -0.016
• H5V = 0.217
• L61I = 0.012
• Q63A = -0.077
• E6Y = 0.218
• I28Q = -0.683
• L7T = -0.447
• Q2A = -0.177
• L61F = -0.074
• I17D = -0.506
• R69K = 0.119
• S60C = -0.098
• K37P = -0.718
• N24V = -0.048
• I9M = -0.356
• G15A = -0.092
• E6T = 0.294
• I25N = -0.931
• E6I = 0.116
• I9F = 0.066
• I28C = -0.633
• I52F = -0.694
• S46A = -0.015
• Q35M = -0.09
• I36M = -0.648
• I18C = -0.616
• Q35G = -0.13
• Q63D = 0.091
• G44V = -0.353
• P10A = -0.117
• S46H = -0.205
• P41R = 0.018
• A57Q = 0.068
• L7G = -0.517
• G15C = -0.353
• S58M = -0.354
• N24E = -0.01
• R29W = -1.06
• M31R = 0.088
• Q30P = -0.809
• N26K = 0.104
• T3S = 0.119
• S45H = -0.223
• P41G = -0.11
• L61V = -0.052
• N26F = -0.354
• R20D = 0.042
• Q49F = -0.533
• C16S = -0.042
• Q49N = -0.054
• S32L = -0.703
• T8G = -0.559
• G19P = -0.423
• C16E = -0.038
• L7W = -0.274
• G15E = -0.062
• I25P = -0.84
• R69P = -0.701
• N40W = -0.512
• L70W = -0.521
• Q63H = -0.124
• L61R = 0.253
• E73D = 0.212
• S32Q = -0.334
• T3N = 0.113
• I25T = -0.367
• A34L = -1.18
• S32K = -0.8
• A39W = -0.071
